Where do the numbers come from? From patent US20230242494A1.

- Target Or Test System: human cGAS (residues 161-522) (Homo sapiens, UniProt Q8N884)
- Construct: human cGAS (residues 161-522)
- Sequence (Q8N884 161-522): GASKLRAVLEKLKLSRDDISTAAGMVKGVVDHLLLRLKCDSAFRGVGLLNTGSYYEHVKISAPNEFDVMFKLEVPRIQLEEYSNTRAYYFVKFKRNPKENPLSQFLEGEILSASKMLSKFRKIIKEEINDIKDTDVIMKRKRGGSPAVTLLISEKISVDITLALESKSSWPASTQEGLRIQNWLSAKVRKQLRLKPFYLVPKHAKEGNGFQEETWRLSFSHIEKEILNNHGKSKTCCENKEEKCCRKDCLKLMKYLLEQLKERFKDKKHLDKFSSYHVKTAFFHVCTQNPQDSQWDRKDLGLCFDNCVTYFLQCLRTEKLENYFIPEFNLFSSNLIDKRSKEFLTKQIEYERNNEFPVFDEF
- Protocol Summary: cGAS Activity Assay—Malachite Green
- Test Conditions: recombinant purified human cGAS 25 nM; 80 μM ATP, 80 μM GTP, 100 nM ISD; 4 hour at RT; phosphate detection by Malachite Green
I'd appreciate it if you could supply IC50 values for the items below.
One number for each entry, in µM.

Solved entries (count: 3):
* Cc1oncc1/C(O)=C(\C#N)C(=O)Nc1ncc(C#Cc2ccccc2)cn1 | 0.48
* Cc1oncc1/C(O)=C(\C#N)C(=O)Nc1ccc(C(N)=O)cc1 | 0.24
* Cc1nnc(NS(=O)(=O)c2ccc(NC(=O)/C(C#N)=C(\O)c3cnoc3C)cc2)s1 | 0.21

Pending molecule:
Any idea what IC50 was measured for Cc1oncc1/C(O)=C(\C#N)C(=O)Nc1ncc(OCC(F)(F)F)c(-c2ccc(Cl)cc2)n1 ?
2.34

* * *

- Target Or Test System: human cGAS (residues 161-522) (Homo sapiens)
- Construct: human cGAS (residues 161-522)
- Protocol Summary: cGAS Activity Assay—Malachite Green
- Test Conditions: recombinant purified human cGAS 25 nM; 80 μM ATP, 80 μM GTP, 100 nM ISD; 4 hour at RT; phosphate detection by Malachite Green
- Experimental: Compounds were tested for cGAS inhibition in a coupled enzymatic assay based on Phosphate detection by Malachite Green. Final assay conditions were 20 mM TRIS pH 7.5 (Applichem), 5 mM MgCl2 (Sigma) and 0.01% BSA (Sigma) supplemented with 80 μM ATP (Sigma), 80 μM GTP (Sigma) and 100 nM Interferon Stimulating DNA (ISD) (Microsynth). […] Table 13 provides IC50 values (μM) for cGAS inhibition obtained for particular examples of the present invention as measured by the above-described assay.
I'd appreciate it if you could supply IC50 values for the items below.
Give bare numbers, in nM.

• COCCN(C)S(=O)(=O)c1ccc(NC(=O)/C(C#N)=C(\O)c2cnoc2C)cc1 = 170
• Cc1oncc1/C(O)=C(\C#N)C(=O)Nc1ncc(C2CCCCC2)cn1 = 190
• Cc1oncc1/C(O)=C(\C#N)C(=O)Nc1ncc(Sc2ccccc2)cn1 = 210
• Cc1oncc1/C(O)=C(\C#N)C(=O)Nc1ncc(OCC2CC2)c(-c2ccc(Cl)cc2)n1 = 2910

Pending molecule:
Any idea what IC50 was measured for COC(=O)c1ccc(NC(=O)/C(C#N)=C(\O)c2cnoc2C)cc1 ?
340

* * *

I'd appreciate it if you could supply pIC50 values for the items below.
- Target Or Test System: human cGAS (residues 161-522) (Homo sapiens)
- Construct: human cGAS (residues 161-522)
- Protocol Summary: cGAS Activity Assay—Malachite Green
- Test Conditions: recombinant purified human cGAS 25 nM; 80 μM ATP, 80 μM GTP, 100 nM ISD; 4 hour at RT; phosphate detection by Malachite Green
Answers are plain numbers, as −log10 of the molar value.

Solved entries (count: 6):
- Cc1oncc1/C(O)=C(\C#N)C(=O)Nc1ncc(C(=O)N(C)c2ccccc2)cn1: 7.05
- Cc1oncc1/C(O)=C(\C#N)C(=O)Nc1ccc(S(C)(=O)=O)cc1: 6.74
- Cc1oncc1/C(O)=C(\C#N)C(=O)Nc1ccc(S(=N)(=O)c2ccccc2)cc1 (stereo not drawn): 6.92
- Cc1cc(C#N)ccc1NC(=O)/C(C#N)=C(\O)c1cnoc1C: 6.16
- Cc1oncc1/C(O)=C(\C#N)C(=O)Nc1ccc(S(=O)(=O)c2ccc(Cl)cc2)cc1: 6.57
- Cc1oncc1/C(O)=C(\C#N)C(=O)Nc1ccc(Cl)c(C(F)(F)F)c1: 5.45

Value sought for every listed molecule: pIC50.
1. Cc1oncc1/C(O)=C(\C#N)C(=O)Nc1ccc(C(F)(F)F)c(Cl)c1
2. Cc1oncc1/C(O)=C(\C#N)C(=O)Nc1ccc(C(F)(F)F)c(C#N)c1
3. Cc1oncc1/C(O)=C(\C#N)C(=O)Nc1ccc(Cl)cc1

1: 5.78; 2: 5.79; 3: 5.95
